// data source = BigSolDB 2.1

conditions: in acetone, 303.15 K
MEASUREMENT_KIND: solubility (mole fraction)

Cn1cc[nH]c1=S
0.107

====

settings: in methanol, 308.15 K
MEASUREMENT_KIND: solubility (mole fraction)

Cn1cc[nH]c1=S
0.177

====

details: in ethanol, 313.15 K
MEASUREMENT_KIND: solubility (mole fraction)

Cn1cc[nH]c1=S
0.117

====

conditions: in ethyl acetate, 293.15 K
MEASUREMENT_KIND: solubility (mole fraction)

Cn1cc[nH]c1=S
0.022

====

settings: in ethanol, 293.15 K
MEASUREMENT_KIND: solubility (mole fraction)

Cn1cc[nH]c1=S
0.0519
